assay_procedure: ATG_VDRE_CIS: Attagene CIS-FACTORIAL HepG2 Assay for human Vitamin D Receptor Element (VDRE) (AID 2282968)
run_conditions: HepG2 VDRE cis-reporter transcription, actives raise or lower the signal
Activity calls are given as the source filed them. Rule for the calls: active = hit-call score of the fitted dose curve at least 0.9, where 1 is the maximum; inactive = score below 0.9.
Choose the fitting class; nothing outside active, inactive is accepted.

Dear all, I need the recorded test outcome for COc1ccc(-c2coc3cc(O)ccc3c2=O)cc1 , thank you.
inactive

What call does the record list for O=S(=O)(Oc1ccc(Cl)cc1Cl)c1ccccc1 ?
active

Look up the recorded call for C1=Cc2ccccc2C1 in this test.
inactive

Recorded test call requested for CC(C)c1ccc2c(c1)CC[C@H]1[C@](C)(CN)CCC[C@]21C
active

Lab log entry: Cc1cc(O)c(Cl)c(C)c1Cl — outcome as called in the assay?
inactive

I'd appreciate the recorded outcome for C=CCCCCCCCCC(=O)OCCCC from this test.
inactive

Please indicate how the test categorized CC1=Nc2ccc3ccccc3c2C1(C)C .
active

Tell me the assay call for c1cc(N(CC2CO2)CC2CO2)ccc1OCC1CO1 (stereo not given) please.
active

Look up the recorded call for O=C(/C=C/C=C/c1ccc2c(c1)OCO2)N1CCCCC1 in this test.
active

Please share the test call associated with Nc1ccc(N=Nc2ccccc2)c(N)n1 .
active

Which outcome was entered for the compound O=C(O)CCCCCCCCCC(=O)O in this test?
inactive

For CC(C)(C)c1ccc(N)cc1 , what call appears in the results of this test?
inactive

So what was the verdict on O=C(Oc1ccccc1)c1ccc2ccccc2c1O in this test?
active

Please indicate how the test categorized N#[N+]c1ccc2c(S(=O)(=O)[O-])cccc2c1O .
inactive

Entry COCCCOCCCOC : call = ?
inactive

What call does the record list for Cc1cccc(N(C)C(=S)Oc2ccc3ccccc3c2)c1 ?
active

Assay result, entry CCC(=O)Oc1ccc(/C(CC)=C(\CC)c2ccc(OC(=O)CC)cc2)cc1 — outcome?
active

Dear all, I need the recorded test outcome for C=CC(=O)OCC(Br)CBr (stereo not given) , thank you.
active

Called result for Nc1ccc(Oc2ccc(N)c(N)c2)cc1
inactive

For CCCCCCCOC(=O)CCC , what call appears in the results of this test?
inactive

Fill in: this test's call for O=C1c2cccc(O)c2C(=O)c2c(O)cc(CO)cc21 is ___
inactive

For CC(=O)OCc1ccco1 , which call appears in the assay record?
inactive

What call does the record list for CC=CC(F)(F)C(F)(F)C(F)(F)F ?
inactive

Per the records of this test, what outcome belongs to CCN(CCO)c1cccc(C)c1 ?
inactive

Please indicate how the test categorized NC(=O)NNC(N)=O .
inactive

Please share the test call associated with CC(C)C(=O)C(C)C .
active

Which outcome did this test record for the compound C[Si](C)(CCCN)O[Si](C)(C)CCCN ?
inactive

Outcome? C=CC(=O)NC(C)(C)CS(=O)(=O)O
inactive

Answer briefly: the call reported for Cc1ccc(C(C)(C)C)cc1 in this assay.
inactive

Please share the test call associated with NNC(=O)c1cccc(C(=O)NN)c1 .
inactive

----------
Read-out: Collagen III, COL3A1 (gene 1281)
assay_procedure: BSK_hDFCGF_CollagenIII: BioMAP Diversity Plus: hDFCGF Assay for Collagen III Biomarker Activity (AID 2283056)
run_conditions: primary human foreskin fibroblasts; actives raise or lower the signal
Protocol: BSK_hDFCGF is a cell-based, multiplexed-readout assay that uses foreskin fibroblast, a human skin primary cell, with measurements taken at 24 hours after chemical dosing in a 96-well plate.BSK_hDFCGF_CollagenIII is an assay component measured in the BSK_hDFCGF assay. It measures Collagen antibody related to regulation of gene expression using ELISA technology.Data from the assay component BSK_hDFCGF_CollagenIII was analyzed into 1 assay endpoint. […]
Active and inactive are the calls of the source. Rule for the calls: active = hit-call score of the fitted dose curve at least 0.9, where 1 is the maximum; inactive = score below 0.9.
Select the matching outcome among true (1) (active), false (0) (inactive)

Called result for CCCCC(CC)COC(=O)c1ccccc1O (configuration not stated)
true (1)

Dear all, I need the recorded test outcome for C=CCOCC(O)CCl (configuration not stated) , thank you.
false (0)

Given c1ccc2c(c1)ccc1cc3c(ccc4ccccc43)cc12 , state the outcome it received in this test.
false (0)

How did this test come out for CN1C(=O)N(C)C(O)C1O (configuration not stated) ?
false (0)

Each molecule tested received a call. Report the one for CCO[Si](C)(OCC)OCC .
false (0)

Any idea what this test logged for C=CC(=O)OCC(Br)CBr (configuration not stated) ?
true (1)

Please let me know the test result on file for O=Nc1ccc(O)cc1 .
false (0)

What call does the record list for CC(C)(c1cc(Br)c(OCCO)c(Br)c1)c1cc(Br)c(OCCO)c(Br)c1 ?
true (1)

What was the test verdict on O=C(Nc1ccccc1SSc1ccccc1NC(=O)c1ccccc1)c1ccccc1 ?
false (0)

Record request — test call for CCCCCCCCc1ccc(Nc2ccc(CCCCCCCC)cc2)cc1
false (0)

Recorded test call requested for CCCCCCCCCCCCCCCC[N+](C)(C)CC
true (1)

I'd appreciate the recorded outcome for c1ccc2c(c1)ccc1ncccc12 from this test.
false (0)

GET /call?item= O=C1CCCN1CCO returns the recorded outcome of this test.
false (0)

Any idea what this test logged for CCCCNc1ccc(NCCCC)c2c1C(=O)c1ccccc1C2=O ?
true (1)

Which outcome did this test record for the molecule O=C(Cl)c1cc(C(=O)Cl)cc(C(=O)Cl)c1 ?
true (1)

Just curious, what result did c1ccc(-c2ccccn2)nc1 get here?
false (0)

Please indicate how the test categorized CO[Si](OC)(OC)c1ccccc1 .
false (0)

Record request — test call for C#CC1(O)CC[C@H]2[C@@H]3CCC4=CCCC[C@@H]4[C@H]3CC[C@@]21C (some centres not stated)
true (1)

Hi, sorry to bother you, what did the test record for CCO[Si](CCCN=C=O)(OCC)OCC ?
false (0)

Please let me know the test result on file for S=C(NC1CCCCC1)NC1CCCCC1 .
false (0)

What did this assay record as the result for CC(C)C(=O)C(C)C ?
false (0)

Tell me the recorded outcome of this test for CCOc1nc(F)cc2nc(S(=O)(=O)Nc3c(Cl)cccc3C(=O)OC)nn12 .
false (0)

----------
assay_procedure: ATG_TAL_CIS: Attagene CIS-FACTORIAL HepG2 Assay for human TAL Basal Promoter (AID 2282966);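 note: background control endpoint measuring basal TAL promoter reporter mRNA not a specific factor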
run_conditions: HepG2 Attagene cis-factorial TAL promoter reporter; actives raise or lower the signal
Active and inactive are the calls of the source. How the source made its calls: active means hit-call score of the fitted dose curve at least 0.9, where 1 is the maximum; inactive means score below 0.9.
outcome_measure: outcome

S=C(NC1CCCCC1)NC1CCCCC1    inactive
O=C1Nc2ccccc2C1(c1ccc(O)cc1)c1ccc(O)cc1    inactive
NC(=O)OCC(COC(N)=O)c1ccccc1    inactive

----------
assay_procedure: ATG_CRE_CIS: Attagene CIS-FACTORIAL HepG2 Assay for human cAMP Responsive Element (CRE) binding protein 3 (AID 2282926)
run_conditions: HepG2 CRE cis-reporter, Attagene multiplexed mRNA; actives raise or lower the signal
Active and inactive are the calls of the source. How the source made its calls: active means hit-call score of the fitted dose curve at least 0.9, where 1 is the maximum; inactive means score below 0.9.
Answer with one of the outcomes given here: active, inactive

How did this test come out for CC1(C)S[C@@H]2[C@H](NC(=O)COc3ccccc3)C(=O)N2[C@H]1C(=O)O ?
inactive

So what was the verdict on Cc1ccc2c(c1)C(=O)c1ccccc1C2=O in this test?
inactive

Could you check what this test reported for O=C(Nc1cccc(C(F)(F)F)c1)c1cc(Br)cc(Br)c1O ?
active

Write down the call the test reported for this compound. Item: O=c1[nH]nc(-c2ccc([N+](=O)[O-])o2)o1
inactive

Which outcome did this test record for the compound COc1ccc(-c2coc3cc(O)ccc3c2=O)cc1 ?
inactive

Given CC(C)c1ccc2cc(C(C)C)ccc2c1 , state the outcome it received in this test.
active

----------
assay_procedure: CEETOX_H295R_11DCORT: CeeTox H295R High-throughput Steroidogenesis Assay for 11-Deoxycortisol (11DCORT) (AID 2283432)
run_conditions: actives raise or lower the signal
The source made the active and inactive calls. How the source made its calls: active means hit-call score of the fitted dose curve at least 0.9, where 1 is the maximum; inactive means score below 0.9.
In this exercise, the only acceptable responses are 1.0 (active), 0.0 (inactive)

Could you please tell me the result logged for Oc1ccc(Cl)cc1Cc1cc(Cl)ccc1O in this assay?
1.0

# outcome recorded in this test, key = CCCCCCCCCCCCCOP(=O)(O)O
0.0

Could you kindly confirm the outcome this assay logged for CO[Si](CCC1CCC2OC2C1)(OC)OC (stereo not given) ?
0.0

Dear colleague, could you share the recorded outcome for O=C(Nc1ccccc1SSc1ccccc1NC(=O)c1ccccc1)c1ccccc1 when you have a moment?
0.0

Please indicate how the test categorized CCOC(=O)Cc1cccc2ccccc12 .
1.0

Given C=COCCCC , state the outcome it received in this test.
0.0

Test call, this molecule: C1=CCCC1
0.0

Given C#CC1(O)CC[C@H]2[C@@H]3CCC4=CCCC[C@@H]4[C@H]3CC[C@@]21C (stereo not given in full) , state the outcome it received in this test.
1.0

Any idea what this test logged for CCCCC/C=C\CCC=O ?
0.0

Which outcome was assigned to S=C(NC1CCCCC1)NC1CCCCC1 in this test?
0.0
